assay: protein stability index of a GFP-peptide fusion (yeast GPS) (PSI 1-4); higher = more stable; sorted into four equal gates, so the index is relative within each strain; conditions: san1∆
measured.attribute: protein stability index
Reply briefly: the number, and no unit.

[ask] # input sequence: GCEANIHSLVKQRLDLA [YIL149C/MLP2] ; wanted: its protein stability index
[reply] 3.05

[ask] Same question for SFDEWFNTPFANTGGQD [SNF2] please.
[reply] 3.41

[ask] Same question for NDEVNEDEEDDNISSFH [YCG1] please.
[reply] 3.31

[ask] Same question for YNDSATSGEAAALGMGL [RPN2] please.
[reply] 2.99

[ask] Same question for TTIGDTTDKNTTDDKSM [BRN1] please.
[reply] 3.44

[ask] Same question for IVMVWLKENTYVMERPK [YDL116W/NUP84] please.
[reply] 1.43

[ask] Same question for PQVLINRDPVKHAEFDL [SIR2] please.
[reply] 3.08

###

assay: protein stability index of a GFP-peptide fusion (yeast GPS) (PSI 1-4); higher = more stable; sorted into four equal gates, so the index is relative within each strain; conditions: san1∆
Please respond with reported protein stability index for every item in the list.
Reply briefly: the number, and no unit.

[ask] # input sequence: ISVNSSSFSLTFFPRCI [POP1] ; wanted: its protein stability index
[reply] 2.44

[ask] Same question for IPQSQQVPQVRSMSGQP [SNF5] please.
[reply] 2.5

[ask] Same question for EPAEANEENDLDVDPAK [RPB2] please.
[reply] 3.17

[ask] Same question for VAEKMNGCSGADVKGVC [RPT6] please.
[reply] 3.19

[ask] Same question for FLRTQFLKLYVLVKWTR [RGR1] please.
[reply] 1.63

[ask] Same question for TVRLVNLFSSTGFKGLL [SRB2] please.
[reply] 2.76

[ask] Same question for LFSLEKPNLNYFKSILL [SWI1] please.
[reply] 1.62

[ask] Same question for PKFISEALAFTSLVANE [YDL116W/NUP84] please.
[reply] 1.31

[ask] Same question for KCKTRAQLTLKRCKHFE [RPL42A] please.
[reply] 2.85

[ask] Same question for RLQQQQAQAQAQANNNN [GAL11] please.
[reply] 2.74

[ask] Same question for EVEEDDEDDDQPMISPD [SWI3] please.
[reply] 3.33

[ask] Same question for LCYMAPMTVKLVQLPKS [POP3] please.
[reply] 2.39

[ask] Same question for LIFGTIASKMSLAPEAD [RPT3] please.
[reply] 2.75

[ask] Same question for FDDACNQIWNIALNLAS [SSN2] please.
[reply] 2.91

[ask] Same question for EEVEDQINPTRETNDDI [SNF2] please.
[reply] 1.45

###

test: protein stability index of a GFP-peptide fusion (yeast GPS) (PSI 1-4); higher = more stable; sorted into four equal gates, so the index is relative within each strain; details: doa10∆
measured.attribute: protein stability index
Reply briefly: the number, and no unit.

[ask] # input sequence: LKYPELSIKNSFIINFI [NUT1] ; wanted: its protein stability index
[reply] 1.99

[ask] Same question for NRHNLLNDVVSFLFSAI [SWI1] please.
[reply] 2.19

[ask] Same question for SLLEKDIDAVNGAVGKR [ISW2] please.
[reply] 2.92

[ask] Same question for GYYVGYKATATGPKQQE [SCL1] please.
[reply] 3.1

[ask] Same question for GAKPAGSTGGLGASFGQ [YGL172W/NUP49] please.
[reply] 3.38

[ask] Same question for STVKKKDIVNISIPKTC [REC8] please.
[reply] 2.71

[ask] Same question for NNNGNPGTTSTGNNNNI [GAL11] please.
[reply] 3.18

[ask] Same question for YITAKNNVVINFKDMSH [PRP8] please.
[reply] 2.26

[ask] Same question for HTSSNSREIAQPSSSRY [SMB1] please.
[reply] 3.17

[ask] Same question for SQTMAETYVASYVVPRL [ECM29] please.
[reply] 1.85

[ask] Same question for TKLRAFVYNKVNETEAI [YGR119C/NUP57] please.
[reply] 2.3

[ask] Same question for KKNIDYQNRSTRSQFCL [RRI1] please.
[reply] 3.01

[ask] Same question for ITLENITRLCQTLGLES [MED1] please.
[reply] 2.07

[ask] Same question for RSSYMLELVNTPLTENI [YCG1] please.
[reply] 3.11
